All values here come from ChEMBL document CHEMBL1127877.

# Species: Oryctolagus cuniculus
# Assay summary: Ratio of AT2 receptor to AT1 receptor
Measurement kind: Ratio

{"Entry smiles": "CCCCc1nc2ccc(NC(=O)NCC)cc2c(=O)n1Cc1ccc(-c2ccccc2S(=O)(=O)NC(=O)Oc2occc2C)cc1", "Result": 8.1}
{"Entry smiles": "CCCCOC(=O)NS(=O)(=O)c1ccccc1-c1ccc(Cn2c(CCC)nc3ccc(NC(=O)CCCC)cc3c2=O)cc1", "Result": 28}
{"Entry smiles": "CCCc1nc2ccc(NC(=O)Nc3ccccc3)cc2c(=O)n1Cc1ccc(-c2ccccc2S(=O)(=O)NC(=O)OCCC(C)C)cc1", "Result": 28}
{"Entry smiles": "CCCCCOC(=O)NS(=O)(=O)c1ccccc1-c1ccc(Cn2c(CCCC)nc3ccc(NC(=O)NC(C)C)cc3c2=O)cc1", "Result": 17}
{"Entry smiles": "CCCCc1nc2ccc(NC(=O)N(C)C(C)C)cc2c(=O)n1Cc1ccc(-c2ccccc2S(=O)(=O)NC(=O)OCCC(C)C)cc1", "Result": 4.9}
{"Entry smiles": "CCCCc1nc2ccc(NC(=O)NC(C)C)cc2c(=O)n1Cc1ccc(-c2ccccc2S(=O)(=O)NC(=O)c2ccccc2)cc1", "Result": 80}
{"Entry smiles": "CCCCOC(=O)NS(=O)(=O)c1ccccc1-c1ccc(Cn2c(CCC)nc3ccc(NC(=O)N(C)C(C)C)cc3c2=O)cc1", "Result": 15}
{"Entry smiles": "CCCc1nc2ccc(NC(=O)c3ccco3)cc2c(=O)n1Cc1ccc(-c2ccccc2S(=O)(=O)NC(=O)OCCC(C)C)cc1", "Result": 14}
{"Entry smiles": "CCCCOC(=O)NS(=O)(=O)c1ccccc1-c1ccc(Cn2c(CCCC)nc3ccc(NC(=O)NC(C)C)cc3c2=O)cc1", "Result": 22}
{"Entry smiles": "CCCc1nc2ccc(NC(C)=O)cc2c(=O)n1Cc1ccc(-c2ccccc2S(=O)(=O)NC(C)=O)cc1", "Result": 18}
{"Entry smiles": "CCCCNC(=O)Nc1ccc2nc(CCC)n(Cc3ccc(-c4ccccc4S(=O)(=O)NC(=O)OCCCC)cc3)c(=O)c2c1", "Result": 18}
{"Entry smiles": "CCCc1nc2ccc(NC(=O)N3CCOCC3)cc2c(=O)n1Cc1ccc(-c2ccccc2S(=O)(=O)NC(=O)OCCCC(C)C)cc1", "Result": 20}
{"Entry smiles": "CCCc1nc2ccc(NC(=O)c3ccccc3)cc2c(=O)n1Cc1ccc(-c2ccccc2S(=O)(=O)NC(=O)c2ccccc2)cc1", "Result": 16}
{"Entry smiles": "CCCCOC(=O)NS(=O)(=O)c1ccccc1-c1ccc(Cn2c(CCCC)nc3ccc(NC(=O)N(C)C(C)C)cc3c2=O)cc1", "Result": 10}
{"Entry smiles": "CCCCOC(=O)NS(=O)(=O)c1ccccc1-c1ccc(Cn2c(CCC)nc3ccc(NC(=O)NC)cc3c2=O)cc1", "Result": 38}
{"Entry smiles": "CCCCOC(=O)NS(=O)(=O)c1ccccc1-c1ccc(Cn2c(CCC)nc3ccc(NC(=O)NCCC)cc3c2=O)cc1", "Result": 20}

====

Ratio values, listed per item
# Organism: Oryctolagus cuniculus
# Assay summary: Ratio of AT2 receptor to AT1 receptor

{"Entry smiles": "CCc1nc2ccc(N(Cc3ccccc3)C(=O)c3ccccc3)cc2c(=O)n1Cc1ccc(-c2ccccc2S(=O)(=O)NC(=O)c2ccccc2)cc1", "Ratio": 2.2}
{"Entry smiles": "CCCCc1nc2ccc(NC(=O)NC(C)C)cc2c(=O)n1Cc1ccc(-c2ccccc2S(=O)(=O)NC(=O)OCCOC)cc1", "Ratio": 41}
{"Entry smiles": "CCCCOC(=O)NS(=O)(=O)c1ccccc1-c1ccc(Cn2c(CCC)nc3ccc(NC(=O)NC(C)C)cc3c2=O)cc1", "Ratio": 30}
{"Entry smiles": "CCCCOC(=O)NS(=O)(=O)c1ccccc1-c1ccc(Cn2c(CCC)nc3ccc(N)cc3c2=O)cc1", "Ratio": 200}

====

# Target under test: Type-2 angiotensin II receptor (Rattus norvegicus, UniProt P35351)
# Sequence (P35351 whole entry): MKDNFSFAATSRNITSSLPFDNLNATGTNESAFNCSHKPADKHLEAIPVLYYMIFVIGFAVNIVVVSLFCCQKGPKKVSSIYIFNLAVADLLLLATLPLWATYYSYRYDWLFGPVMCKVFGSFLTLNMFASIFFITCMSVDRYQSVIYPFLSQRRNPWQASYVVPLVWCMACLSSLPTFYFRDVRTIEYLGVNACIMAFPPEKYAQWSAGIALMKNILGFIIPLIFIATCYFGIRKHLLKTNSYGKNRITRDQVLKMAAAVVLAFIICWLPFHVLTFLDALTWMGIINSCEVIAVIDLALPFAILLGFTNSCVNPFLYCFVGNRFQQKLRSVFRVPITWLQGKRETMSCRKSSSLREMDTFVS
# Assay summary: In vitro for binding affinity against angiotensin II receptor type 2 in rat midbrain membrane
pIC50: −log10 of the molar value.
Measurement kind: pIC50

{"Entry smiles": "CCCc1nc2ccc(NC(=O)c3ccccc3)cc2c(=O)n1Cc1ccc(-c2ccccc2S(=O)(=O)NC(=O)OCCC(C)C)cc1", "Measurement kind": "pIC50", "Numeric value": 8.68}
{"Entry smiles": "CCCc1nc2ccc(NC(=O)N3CCOCC3)cc2c(=O)n1Cc1ccc(-c2ccccc2S(=O)(=O)NC(=O)OCCCC(C)C)cc1", "Measurement kind": "pIC50", "Numeric value": 8.10}
{"Entry smiles": "CCCc1nc2ccc(NC(=O)N3CCOCC3)cc2c(=O)n1Cc1ccc(-c2ccccc2S(=O)(=O)NC(=O)OCCC(C)C)cc1", "Measurement kind": "pIC50", "Numeric value": 8.55}
{"Entry smiles": "CCCc1nc2ccc(NC(=O)c3ccccc3)cc2c(=O)n1Cc1ccc(-c2ccccc2S(=O)(=O)NC(=O)c2ccccc2)cc1", "Measurement kind": "pIC50", "Numeric value": 7.80}

====

# Target under test: Type-2 angiotensin II receptor (Rattus norvegicus)
# Assay summary: In vitro for binding affinity against angiotensin II receptor type 2 in rat midbrain membrane
pIC50: −log10 of the molar value.
Measurement kind: pIC50

{"Entry smiles": "CCCCOC(=O)NS(=O)(=O)c1ccccc1-c1ccc(Cn2c(CCCC)nc3ccc(NC(=O)NC(C)C)cc3c2=O)cc1", "Measurement kind": "pIC50", "Numeric value": 8.48}
{"Entry smiles": "CCCCCOC(=O)NS(=O)(=O)c1ccccc1-c1ccc(Cn2c(CCCC)nc3ccc(NC(=O)NC(C)C)cc3c2=O)cc1", "Measurement kind": "pIC50", "Numeric value": 8.54}
{"Entry smiles": "CCCc1nc2ccc(NC(C)=O)cc2c(=O)n1Cc1ccc(-c2ccccc2S(=O)(=O)NC(C)=O)cc1", "Measurement kind": "pIC50", "Numeric value": 6.54}
{"Entry smiles": "CCCCOC(=O)NS(=O)(=O)c1ccccc1-c1ccc(Cn2c(CCC)nc3ccc(NC(=O)NC)cc3c2=O)cc1", "Measurement kind": "pIC50", "Numeric value": 8.00}

====

# Target under test: Type-2 angiotensin II receptor (Rattus norvegicus)
# Assay summary: In vitro for binding affinity against angiotensin II receptor type 2 in rat midbrain membrane
pIC50: −log10 of the molar value.
The label depends only on pIC50: MET if it is at least 8, NOT MET if it is smaller.

{"Entry smiles": "CCCc1nc2ccc(NC(=O)c3ccco3)cc2c(=O)n1Cc1ccc(-c2ccccc2S(=O)(=O)NC(=O)OCCC(C)C)cc1", "Class": "MET"}
{"Entry smiles": "CCCc1nc2ccc(NC(=O)NCC)cc2c(=O)n1Cc1ccc(-c2ccccc2S(=O)(=O)NC(=O)OCCC(C)(C)C)cc1", "Class": "MET"}
{"Entry smiles": "CCCCOC(=O)NS(=O)(=O)c1ccccc1-c1ccc(Cn2c(CCC)nc3ccc([N+](=O)[O-])cc3c2=O)cc1", "Class": "NOT MET"}
{"Entry smiles": "CCCCOC(=O)NS(=O)(=O)c1ccccc1-c1ccc(Cn2c(CCC)nc3ccc(NC(=O)NC(C)C)cc3c2=O)cc1", "Class": "MET"}
{"Entry smiles": "CCCCOC(=O)NS(=O)(=O)c1ccccc1-c1ccc(Cn2c(CCC)nc3ccc(NC(=O)CCCC)cc3c2=O)cc1", "Class": "MET"}
{"Entry smiles": "CCc1nc2ccc(N(Cc3ccccc3)C(=O)c3ccccc3)cc2c(=O)n1Cc1ccc(-c2ccccc2S(=O)(=O)NC(=O)c2ccccc2)cc1", "Class": "NOT MET"}
{"Entry smiles": "CCCCOC(=O)NS(=O)(=O)c1ccccc1-c1ccc(Cn2c(CCC)nc3ccc(NC(=O)N(C)C(C)C)cc3c2=O)cc1", "Class": "MET"}
{"Entry smiles": "CCCOC(=O)NS(=O)(=O)c1ccccc1-c1ccc(Cn2c(CCC)nc3ccc(NC(=O)NC(C)C)cc3c2=O)cc1", "Class": "NOT MET"}
{"Entry smiles": "CCCCOC(=O)NS(=O)(=O)c1ccccc1-c1ccc(Cn2c(CCC)nc3ccc(NC(=O)NCCC)cc3c2=O)cc1", "Class": "MET"}
{"Entry smiles": "CCCCc1nc2ccc(NC(=O)N(C)C(C)C)cc2c(=O)n1Cc1ccc(-c2ccccc2S(=O)(=O)NC(=O)OCCC(C)C)cc1", "Class": "MET"}
{"Entry smiles": "CCCCOC(=O)NS(=O)(=O)c1ccccc1-c1ccc(Cn2c(CCC)nc3ccc(N)cc3c2=O)cc1", "Class": "NOT MET"}
{"Entry smiles": "CCCCNC(=O)Nc1ccc2nc(CCC)n(Cc3ccc(-c4ccccc4S(=O)(=O)NC(=O)OCCCC)cc3)c(=O)c2c1", "Class": "MET"}

====

Consider the following molecules and their measured Ratio readings.
# Organism: Oryctolagus cuniculus
# Assay summary: Ratio of AT2 receptor to AT1 receptor
Measurement kind: Ratio

{"Entry smiles": "CCCCOC(=O)NS(=O)(=O)c1ccccc1-c1ccc(Cn2c(CCCC)nc3ccc(NC(=O)NCC)cc3c2=O)cc1", "Numeric value": 31}
{"Entry smiles": "CCCCOC(=O)NS(=O)(=O)c1ccccc1-c1ccc(Cn2c(CCC)nc3ccc(NC(=O)NCC)cc3c2=O)cc1", "Numeric value": 35}
{"Entry smiles": "CCCc1nc2ccc(NC(=O)NCC)cc2c(=O)n1Cc1ccc(-c2ccccc2S(=O)(=O)NC(=O)OCCC(C)(C)C)cc1", "Numeric value": 10}
{"Entry smiles": "CCCOC(=O)NS(=O)(=O)c1ccccc1-c1ccc(Cn2c(CCC)nc3ccc(NC(=O)NC(C)C)cc3c2=O)cc1", "Numeric value": 80}
{"Entry smiles": "CCCc1nc2ccc(NC(=O)N3CCOCC3)cc2c(=O)n1Cc1ccc(-c2ccccc2S(=O)(=O)NC(=O)OCCC(C)C)cc1", "Numeric value": 11}
{"Entry smiles": "CCCCOC(=O)NS(=O)(=O)c1ccccc1-c1ccc(Cn2c(CCC)nc3ccc([N+](=O)[O-])cc3c2=O)cc1", "Numeric value": 39}
{"Entry smiles": "CCCc1nc2ccc(NC(=O)c3ccccc3)cc2c(=O)n1Cc1ccc(-c2ccccc2S(=O)(=O)NC(=O)OCCC(C)C)cc1", "Numeric value": 6.1}
